Molecular target: CP C3-convertase (C4b2a) (UniProt P0C0L4 757-1446; P0C0L4 20-675; P0C0L4 1454-1744; P06681 244-752)
Sequence (P0C0L4 757-1446 limits assumed, chain 1 of 4): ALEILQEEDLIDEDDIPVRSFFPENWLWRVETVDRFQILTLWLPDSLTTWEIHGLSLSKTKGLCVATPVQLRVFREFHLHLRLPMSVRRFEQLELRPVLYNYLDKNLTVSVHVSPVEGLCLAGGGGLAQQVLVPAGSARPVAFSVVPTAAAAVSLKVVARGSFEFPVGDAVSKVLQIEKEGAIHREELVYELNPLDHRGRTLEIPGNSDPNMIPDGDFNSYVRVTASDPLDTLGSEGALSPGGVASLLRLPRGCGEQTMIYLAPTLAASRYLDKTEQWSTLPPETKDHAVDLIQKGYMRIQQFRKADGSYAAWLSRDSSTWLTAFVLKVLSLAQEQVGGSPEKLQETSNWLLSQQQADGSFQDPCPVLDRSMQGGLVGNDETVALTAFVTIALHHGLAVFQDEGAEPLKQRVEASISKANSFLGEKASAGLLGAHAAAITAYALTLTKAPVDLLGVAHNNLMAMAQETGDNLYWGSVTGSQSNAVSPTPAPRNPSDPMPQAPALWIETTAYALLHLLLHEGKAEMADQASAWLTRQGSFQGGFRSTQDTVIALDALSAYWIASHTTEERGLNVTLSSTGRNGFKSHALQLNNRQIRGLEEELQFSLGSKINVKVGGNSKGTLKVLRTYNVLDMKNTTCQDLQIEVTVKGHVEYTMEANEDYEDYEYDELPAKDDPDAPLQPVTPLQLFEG
Sequence (P0C0L4 20-675 limits assumed, chain 2 of 4): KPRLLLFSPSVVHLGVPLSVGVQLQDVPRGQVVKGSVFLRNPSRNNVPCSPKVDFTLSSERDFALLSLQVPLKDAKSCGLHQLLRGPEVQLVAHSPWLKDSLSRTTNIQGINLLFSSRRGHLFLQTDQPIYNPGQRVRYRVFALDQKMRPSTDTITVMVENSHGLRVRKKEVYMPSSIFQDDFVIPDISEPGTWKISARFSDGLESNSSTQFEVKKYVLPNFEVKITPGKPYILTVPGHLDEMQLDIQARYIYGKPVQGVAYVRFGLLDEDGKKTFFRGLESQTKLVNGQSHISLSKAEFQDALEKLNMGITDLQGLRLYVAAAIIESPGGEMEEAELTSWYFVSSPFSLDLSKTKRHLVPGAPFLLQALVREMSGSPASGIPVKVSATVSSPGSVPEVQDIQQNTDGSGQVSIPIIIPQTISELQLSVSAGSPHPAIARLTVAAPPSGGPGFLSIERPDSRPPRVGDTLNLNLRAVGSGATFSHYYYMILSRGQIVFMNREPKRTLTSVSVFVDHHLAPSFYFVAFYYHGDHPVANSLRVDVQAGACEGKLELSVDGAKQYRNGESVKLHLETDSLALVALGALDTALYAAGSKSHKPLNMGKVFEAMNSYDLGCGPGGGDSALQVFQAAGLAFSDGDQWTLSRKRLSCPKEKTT
Sequence (P0C0L4 1454-1744 limits assumed, chain 3 of 4): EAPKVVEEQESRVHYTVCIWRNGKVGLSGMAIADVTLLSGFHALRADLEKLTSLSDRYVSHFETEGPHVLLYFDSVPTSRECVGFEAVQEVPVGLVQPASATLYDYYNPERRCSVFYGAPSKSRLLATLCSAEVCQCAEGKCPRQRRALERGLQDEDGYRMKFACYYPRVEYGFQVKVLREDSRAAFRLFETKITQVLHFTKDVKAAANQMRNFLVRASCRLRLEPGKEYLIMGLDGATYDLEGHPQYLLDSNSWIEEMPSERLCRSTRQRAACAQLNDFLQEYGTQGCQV
Sequence (P06681 244-752 limits assumed, chain 4 of 4): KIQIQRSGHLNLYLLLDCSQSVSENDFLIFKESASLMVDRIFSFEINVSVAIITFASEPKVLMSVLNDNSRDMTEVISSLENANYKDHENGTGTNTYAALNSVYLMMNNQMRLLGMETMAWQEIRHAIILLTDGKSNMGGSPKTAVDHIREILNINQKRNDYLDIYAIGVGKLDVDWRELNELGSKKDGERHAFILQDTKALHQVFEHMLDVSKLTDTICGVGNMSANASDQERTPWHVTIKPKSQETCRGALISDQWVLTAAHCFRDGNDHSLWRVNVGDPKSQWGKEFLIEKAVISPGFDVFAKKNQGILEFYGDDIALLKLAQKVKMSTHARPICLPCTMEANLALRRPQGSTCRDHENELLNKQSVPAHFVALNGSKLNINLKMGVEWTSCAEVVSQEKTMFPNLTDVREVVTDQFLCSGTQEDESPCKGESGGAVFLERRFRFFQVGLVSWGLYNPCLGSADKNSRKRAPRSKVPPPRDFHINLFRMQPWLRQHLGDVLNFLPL
Experiment: cell-based or functional assay
experimentalReadout: Relative CP-DAA
Just the number.

Problem: Query (binder): D2M2-4 (DAF-MCP chimera with the DAF D2-D3 linker) (other) CEVPTRLNSASLKQPYITQNYFPVGTVVEYECRPGYRREPSLSPKLTCLQNLKWSTAVEFCKKKSCPYIRDPLNGQAVPANGTYEFGYQMHFICNEGYYLIGEEILYCELKGSVAIWSGKPPICEKVLCTPPPKIKNGKHTFSEVEVFEYLDAVTYSCDPAPGPDPFSLIGESTIYCGDNSVWSRAAPECKVVKCRFPVVENGKQISGFGKKFYYKATVMFECDKGFYLDGSDTIVCDSNSTWDPPVPKCLKVL ; field requested: Relative CP-DAA
Solution: 0.03
